The origin of these recorded values is ChEMBL document CHEMBL1127058.

Below: a set of entries, each annotated with reported Ki.
- ASSAY_SYSTEM: UniProt:P10980
- Sequence (P10980 whole entry): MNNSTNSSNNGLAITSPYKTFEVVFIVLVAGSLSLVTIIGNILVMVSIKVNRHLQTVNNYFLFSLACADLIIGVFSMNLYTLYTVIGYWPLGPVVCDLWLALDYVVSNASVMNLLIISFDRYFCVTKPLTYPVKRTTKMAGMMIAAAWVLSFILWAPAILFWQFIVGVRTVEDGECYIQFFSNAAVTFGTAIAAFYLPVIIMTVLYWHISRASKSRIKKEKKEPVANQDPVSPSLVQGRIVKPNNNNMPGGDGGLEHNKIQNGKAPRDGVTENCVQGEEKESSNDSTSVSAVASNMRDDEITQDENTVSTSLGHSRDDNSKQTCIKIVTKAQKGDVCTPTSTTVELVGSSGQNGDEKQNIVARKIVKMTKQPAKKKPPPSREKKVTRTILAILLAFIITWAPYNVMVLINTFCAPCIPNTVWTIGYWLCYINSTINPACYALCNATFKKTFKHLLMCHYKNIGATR
- TEST_SUMMARY: Tested for binding affinity to [3H]QNB and GppNHp radiolabeled muscarinic M2 receptor in rat heart
VALUE_TYPE: Ki (µM)

INSERT INTO results (compound, value_type, units_text, comparison_symbol, measured_number) VALUES
  ('C[C@H]1CC(=O)N(CC#CC[N+](C)(C)C)C1', 'Ki', 'µM', '>', 100),
  ('CC(=O)N(C)C(C)C#CCN1CCCC1 (configuration not stated)', 'Ki', 'µM', '=', 0.18);
